test target: recombinant USP30 (amino acids 57-517 of the human sequence) (Homo sapiens (Human))
Sequence (Q70CQ3 57-517): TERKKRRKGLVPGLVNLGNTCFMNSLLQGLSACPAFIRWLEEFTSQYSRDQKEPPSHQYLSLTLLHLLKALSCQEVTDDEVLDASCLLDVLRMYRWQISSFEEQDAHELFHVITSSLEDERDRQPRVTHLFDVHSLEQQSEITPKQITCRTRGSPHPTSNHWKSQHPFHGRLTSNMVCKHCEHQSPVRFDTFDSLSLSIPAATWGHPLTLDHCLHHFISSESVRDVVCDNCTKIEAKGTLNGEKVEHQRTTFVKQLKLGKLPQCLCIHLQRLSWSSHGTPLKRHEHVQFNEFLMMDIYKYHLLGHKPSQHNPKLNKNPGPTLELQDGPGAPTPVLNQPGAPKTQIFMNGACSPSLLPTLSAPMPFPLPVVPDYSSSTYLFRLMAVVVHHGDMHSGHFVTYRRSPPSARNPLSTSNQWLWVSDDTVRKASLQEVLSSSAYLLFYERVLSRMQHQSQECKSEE
assay overview: In vitro USP30 biochemical assay (Ubiquitin-Rhodamine substrate)
experimental conditions: 1.5 nM recombinant USP30, 25 nM Ubiquitin-Rhodamine, fluorescence
reported metric: IC50

Some molecules with known IC50 results, for comparison:
1. CC(C)(CCO)NS(=O)(=O)c1ccc(NC(=O)[C@H](Cc2ccc(-c3ccccc3)cc2)NC(=O)c2ccc(F)cc2)cc1: 0.05 to 1 µM
2. COc1cc(NC(=O)[C@H](CC(C)C)NC(=O)c2ccc(F)cc2)cnc1S(=O)(=O)NC(C)(C)CO: 1 to 10 µM
3. CC(C)(C)NS(=O)(=O)c1ccc(NC(=O)[C@H](CC2COC2)NC(=O)c2ccc(F)cc2)cc1: 0.05 to 1 µM

Record request: IC50 value, item CC(C)(C)NS(=O)(=O)c1ccc(NC(=O)[C@@H]2C[C@@H](C3CCCCC3)CN2C(=O)c2ccc(F)cc2)cc1
0.05 to 1 µM

Another molecule: N#CN1CC[C@@H](NC(=O)[C@H](Cc2ccccc2)NC(=O)c2ccc(F)cc2)C1
0.05 to 1 µM

Quick one: CC(=O)CN1CCC(C[C@H](NC(=O)c2ccc(F)cc2)C(=O)Nc2ccc(S(=O)(=O)NC(C)(C)C)cc2)CC1
0.05 to 1 µM

Let us now turn to O=C(Nc1ccc(S(=O)(=O)NC2COC2)nc1)[C@@H]1C[C@@H](c2ccccc2)CN1C(=O)c1ccc(F)cc1
1 to 10 µM

----------
IC50 by entry:
test target: recombinant USP30 (amino acids 57-517 of the human sequence) (Homo sapiens (Human))
assay overview: In vitro USP30 biochemical assay (Ubiquitin-Rhodamine substrate)
experimental conditions: […] recombinant USP30, 25 nM Ubiquitin-Rhodamine, fluorescence

The cases that follow already have their IC50 on record.
1) CC(C)C[C@H](NC(=O)c1ccc(F)cc1)C(=O)Nc1ccc(S(=O)(=O)NC(C)(C)C)cc1 [Compound I-11]: < 0.05 µM
2) CC1(NC(=O)[C@H](Cc2ccccc2)NC(=O)c2ccc(F)cc2)CN(C(=O)OCc2ccccc2)C1 [Compound I-252]: > 10 µM
3) O=C(Nc1ccc(S(=O)(=O)N[C@@H]2CCOC2)cc1)[C@@H]1C[C@H](O)CN1C(=O)c1ccc(F)cc1 [Compound I-282]: > 10 µM

What measured IC50 goes with CC(C)(C)NS(=O)(=O)c1ccc(NC(=O)[C@H](CC2CCOCC2)NC(=O)c2ccc(F)cn2)cc1 [Compound I-177] ?
< 0.05 µM

----------
test target: recombinant USP30 (amino acids 57-517 of the human sequence) (Homo sapiens (Human))
assay overview: In vitro USP30 biochemical assay (Ubiquitin-Rhodamine substrate)
experimental conditions: 1.5 nM recombinant USP30, 25 nM Ubiquitin-Rhodamine, fluorescence
Procedure: In vitro biochemical assay to establish the potency of compounds for USP30 inhibition: a 384-well plate assay using a fluorophore tagged substrate of USP30 was used for in vitro screening of compounds. Each compound was tested at 10 different concentrations (0.5 to 10,000 nM) in duplicate wells. […] Data were analyzed using Graph Pad Prism software with a four-parameter (floating slope) fit to log concentration data to determine IC50s.
reported metric: IC50

Consider the reported IC50 for these molecules:
1) CC(C)(NS(=O)(=O)c1ccc(NC(=O)[C@H](Cc2ccccc2)NC(=O)c2ccc(F)cn2)cc1)C(F)(F)F [Compound I-201]: 0.05 to 1 µM
2) CC(C)(C)NS(=O)(=O)c1ccc(NC(=O)[C@H](CC2CCN(C(=O)OCc3ccccc3)CC2)NC(=O)c2ccc(F)cc2)cc1 [Compound I-43]: 0.05 to 1 µM
3) CC(C)(C)NS(=O)(=O)c1ccc(NC(=O)[C@H](Cc2ccccc2)c2nnc(-c3ccc(F)cc3)o2)cc1 (stereo in doubt) [Compound I-56]: 1 to 10 µM
4) CN1CCC(C[C@H](NC(=O)c2ccc(F)cc2)C(=O)Nc2ccc(S(=O)(=O)NC(C)(C)C(F)(F)F)cc2)CC1 [Compound I-158]: 0.05 to 1 µM
5) CC(C)(C)NS(=O)(=O)c1ccc(NC(=O)[C@H](Cc2ccccc2)NC(=O)c2cc[nH]n2)cc1 [Compound I-178]: 1 to 10 µM
6) O=C(Nc1ccc(S(=O)(=O)N[C@@H]2CCOC2)cc1)[C@@H]1C[C@@H](c2ccccc2)CN1C(=O)c1ccc(F)cc1 [Compound I-261]: 1 to 10 µM

Hello, I am looking for reported IC50 with recombinant USP30 (amino acids 57-517 of the human sequence) (Homo sapiens (Human)) for CN1CCC(C[C@H](NC(=O)c2ccc(F)cc2)C(=O)Nc2ccc(S(=O)(=O)NCc3ccnn3C)cc2)CC1 [Compound I-231] . Could you help?
0.05 to 1 µM

Then O=C(N[C@@H](Cc1ccccc1)C(=O)Nc1ccc(S(=O)(=O)NC23CC(C2)C3)c(C(F)(F)F)c1)c1ccc(F)cc1 [Compound I-69] ?
0.05 to 1 µM

Moving on to CC(C)(NS(=O)(=O)c1ccc(NC(=O)[C@H](CC2CCNCC2)NC(=O)c2ccc(F)cn2)cc1)C(F)(F)F [Compound I-199]
0.05 to 1 µM

Please do the same for COCCC(C)(C)NS(=O)(=O)c1ccc(NC(=O)[C@H](Cc2ccccc2)NC(=O)c2ccc(F)cc2)cc1C(F)(F)F [Compound I-65] as well.
0.05 to 1 µM

How about this molecule: CC(C)(CO)NS(=O)(=O)c1ccc(NC(=O)C(CC2CCNCC2)NC(=O)c2ccc(F)cc2)cc1 (stereo not shown) [Compound I-72]
0.05 to 1 µM

Try this molecule too: CC(C)(C)NS(=O)(=O)c1ccc(NC(=O)[C@H](Cc2ccccc2)NC(=O)c2ccon2)cc1 [Compound I-167]
0.05 to 1 µM

Also Cn1nccc1CNS(=O)(=O)c1ccc(NC(=O)[C@H](Cc2ccccc2)NC(=O)c2ccc(F)cc2)cc1 [Compound I-205] , if possible.
0.05 to 1 µM
